The measurements presented in this section are drawn from patent EP0676203A1.

System: souris dépendantes à la morphine
Assay: Naloxone-precipitated withdrawal syndrome (jumping) in morphine-treated mice, repeated 4-day oral treatment
Assay type: in vivo
Conditions: Morphine 799 mg/kg s.c (cumulated over 4 days) + compound 4 x 100 mg/kg p.o; naloxone 100 mg/kg ip; normal mice
Recorded Nombre de sauts/10 minutes (m ± esm), one value per entry.

{"columns": ["compound", "measured_target", "Nombre de sauts/10 minutes (m ± esm) [sauts/10 minutes]"],
 "data": [
  ["CN(C)c1ccc([C@H]2C[C@]3(C)[C@@H](CC[C@]3(O)CCCO)[C@@H]3CCC4=CC(=O)CCC4=C32)cc1 [AG5]", "souris dépendantes à la morphine", 68],
  ["CC#CC1(O)CCC2C3CCC4=CC(=O)CCC4(Cc4ccc(C)cc4)C3=CCC21C (centres unmarked) [AG2]", "souris dépendantes à la morphine", 79],
  ["CC#CC1(O)CCC2C3CCC4=CC(=O)CCC4(Cc4ccccc4)C3=CCC21C (centres unmarked) [AG4]", "souris dépendantes à la morphine", 72],
  ["CC#C[C@]1(O)CC[C@H]2[C@@H]3CCC4=CC(=O)CCC4=C3[C@@H](c3ccc(N(C)C)cc3)C[C@@]21C [AG1]", "souris dépendantes à la morphine", 68],
  ["C=C1C[C@@]2(CC[C@H]3[C@@H]4CCC5=CC(=O)CCC5=C4[C@@H](c4ccc(N(C)C)cc4)C[C@@]32C)OC1=O [AG3]", "souris dépendantes à la morphine", 66]
]}
